Documented Ki across a set of compounds
Assay: Inhibitory activity against lumazine synthase beta-60 capsids from Bacillus subtilis
readout: Ki

recordsmiles=O=C(Nc1c(O)nc(O)nc1NC[C@H](O)[C@H](O)[C@H](O)CO)c1ccc(S(=O)(=O)O)cc1 obsvalue="360 µM"
recordsmiles=O=c1[nH]c(=O)c2ncn(C[C@H](O)[C@H](O)[C@H](O)CO)c2[nH]1 obsvalue="470 µM"
recordsmiles=O=C(O)CCCC(=O)Nc1c(O)nc(O)nc1NC[C@H](O)[C@H](O)[C@H](O)CO obsvalue="430 µM"
recordsmiles=O=P(O)(O)CCCCCCc1c(O)nc(O)nc1NC[C@H](O)[C@H](O)[C@H](O)CO obsvalue="109 µM"
recordsmiles=O=C(Nc1c(O)nc(O)nc1NC[C@H](O)[C@H](O)[C@H](O)CO)c1ccc(S(=O)(=O)F)cc1 obsvalue="200 µM"
recordsmiles=O=c1[nH]c(=O)c2nnn(C[C@H](O)[C@H](O)[C@H](O)CO)c2[nH]1 obsvalue="330 µM"
